All figures here come from PubChem BioAssay (NCI).

Test system: T-47D breast
protocol.details: NCI tumour cell line growth inhibition, 48 h; in the data active = GI50 below about 0.43 µM; inactive = the rest
Entry note: the call must match one of true for active, false for inactive

Example results:
molecule	group.label
COCCNCc1ccc(-c2cc3nccc(Oc4ccc(NC(=S)NC(=O)Cc5ccc(F)cc5)cc4F)c3s2)nc1	false
O=c1[nH]c2ccccc2c2ccccc12	false
O=C(Oc1cccc2cccnc12)c1cc2c(cc1Cl)SC(N(c1ccc(F)cc1)S(=O)(=O)c1ccc(Br)s1)=NS2(=O)=O	false
C/C(=N\NC(=S)N1CCCCC1)c1ccccn1	true
Fc1cccc(COc2ccc(Nc3ncnc4sc(-c5cccs5)cc34)cc2Cl)c1	false

QUERY: Just curious, what result did CCSCC1CC(O)(c2ccccc2)CC(c2ccc(F)cc2)O1 (stereo unspecified) get here?
RESULT: false

QUERY: Just curious, what result did CC(N)C(Cc1ccc(Cl)cc1)c1ccc(Cl)cc1 (stereo unspecified) get here?
RESULT: false

QUERY: Just curious, what result did CC(=O)Nc1ccc2c(c1)C(c1ccccc1Cl)=Nc1c(n[nH]c1C)N2 get here?
RESULT: false

QUERY: Just curious, what result did O=c1c2c(=NCCN3CCCC3)cc3c(=O)n(CCCN4CCOCC4)c(=O)c4c(-c5ccc(CN6CCCC6)cc5)cc(c(O)n1CCCN1CCOCC1)c2c4-3 get here?
RESULT: true

QUERY: Just curious, what result did COc1ccc(C2=N[C@@H](Cc3ccccc3)C(=O)Nc3ccsc32)cc1 get here?
RESULT: false

QUERY: Just curious, what result did CS(=O)(=O)Nc1cncc(-c2ccc3ncnc(Nc4ccc(F)c(Cl)c4)c3c2)c1 get here?
RESULT: true
